Values from patent US20220363770A1

target: T1, human CGRP receptor extracellular domain (ECD) (human, UniProt Q16602 23-138; O60894 27-117); assay: yeast-displayed Fab, FACS, 1 nM human CGRP receptor ECD
T1 construct: also called CGRP receptor ECD; human CGRP receptor ECD
T1 sequence (Q16602 23-138 limits assumed, chain 1 of 2): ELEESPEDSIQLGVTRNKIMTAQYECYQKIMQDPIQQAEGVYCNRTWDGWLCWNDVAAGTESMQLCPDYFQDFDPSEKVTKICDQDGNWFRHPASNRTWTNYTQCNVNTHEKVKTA
T1 sequence (O60894 27-117 limits assumed, chain 2 of 2): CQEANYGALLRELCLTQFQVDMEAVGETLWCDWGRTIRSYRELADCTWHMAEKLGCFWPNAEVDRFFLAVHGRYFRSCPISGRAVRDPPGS
Measured Attribute: Normalized Binding Signal/Display Signal (B/D) (ratio)
Numbers only; they are read as ratio.

{"columns": ["Binder", "Unit", "Meas Value"],
 "data": [
  ["anti-CGRP receptor variant 10, yeast-displayed Fab (Fab, V domains shown, also called Variant Ab ID 10) VH: QVQLVESGGGVVQPGRSLRLSCAASGFFFGSYGMHWVRQAPGKGLEWVAVISFAGEIEHYVDSVKGRFTISRDNSKNTLFLQMNSLRAEDTAVYYCARDRLNYYESSGYYHYKYYGMAVWGQGTTVTVSS VL: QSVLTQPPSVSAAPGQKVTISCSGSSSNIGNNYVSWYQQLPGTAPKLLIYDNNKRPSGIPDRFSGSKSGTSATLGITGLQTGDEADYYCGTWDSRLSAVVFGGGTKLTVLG", "ratio", 0.4],
  ["anti-CGRP receptor variant 11, yeast-displayed Fab (Fab, V domains shown, also called Variant Ab ID 11) VH: QVQLVESGGGVVQPGRSLRLSCAASGFWFDTFGMHWVRQAPGKGLEWVAVISFAGEDTHYVDSVKGRFTISRDNSKNTLFLQMNSLRAEDTAVYYCARDRLNYYESYGYYGYHYYGMAVWGQGTTVTVSS VL: QSVLTQPPSVSAAPGQKVTISCSGSRSNIGRYSVSWYQQLPGTAPKLLIYENMFRPRGIPDRFSGSKSGTSATLGITGLQTGDEADYYCGTWDYRMQAVVFGGGTKLTVLG", "ratio", 1.36]
]}

Enquiry: What value of measured Normalized Binding Signal/Display Signal (B/D) is listed for anti-CGRP receptor variant 02, yeast-displayed Fab (Fab, V domains shown, also called Variant Ab ID 02) VH: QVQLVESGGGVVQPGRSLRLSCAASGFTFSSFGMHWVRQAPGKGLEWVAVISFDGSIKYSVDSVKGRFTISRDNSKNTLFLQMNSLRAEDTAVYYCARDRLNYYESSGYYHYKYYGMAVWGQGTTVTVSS VL: QSVLTQPPSVSAAPGQKVTISCSGSRSNIGIKAVSWYQQLPGTAPKLLIYDNNKRPSGIPDRFSGSKSGTSATLGITGLQTGDEADYYCGTWDSRLSAVVFGGGTKLTVLG ?
Return: 0.17
